Molecular target: T1, rat neuropeptide FF receptor (NPFF1) (rat, UniProt Q9EP86 1-432)
T1 construct: also the native receptor in rat brain sections (autoradiography); also called rat NPFF1; SNORF2
T1 sequence (Q9EP86 whole entry): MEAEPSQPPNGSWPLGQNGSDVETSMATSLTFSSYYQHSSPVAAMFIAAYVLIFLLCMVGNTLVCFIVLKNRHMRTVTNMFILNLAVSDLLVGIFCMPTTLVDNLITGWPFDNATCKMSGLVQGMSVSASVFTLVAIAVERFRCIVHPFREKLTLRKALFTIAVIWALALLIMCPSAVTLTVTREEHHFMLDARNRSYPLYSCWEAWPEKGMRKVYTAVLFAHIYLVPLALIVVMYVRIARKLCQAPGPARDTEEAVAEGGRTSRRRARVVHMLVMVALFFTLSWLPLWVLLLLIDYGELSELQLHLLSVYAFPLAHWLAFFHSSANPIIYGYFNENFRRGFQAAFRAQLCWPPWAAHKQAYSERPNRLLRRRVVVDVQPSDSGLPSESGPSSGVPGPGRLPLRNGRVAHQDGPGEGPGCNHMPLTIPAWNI
Test: competition with [125I]D-Tyr-NPFF, membranes of COS-7 cells with rat NPFF1
Non-standard residues stand in square brackets, D forms with d. No end group written: not given here. NMeF = CN[C@@H](Cc1ccccc1)C(=O)O
Dear colleague, classification is by pKi, with ranges listed here: interval 1: < 7; interval 2: ≥ 7 and < 8; interval 3: ≥ 8

1) AGEGLSSPFWSLAAPQRF-NH2 (also called NPAF) [rat A-18-F-amide]: interval 2
2) PDVDHVFLRF-NH2 (also called SchistFLRF) [Schisto(FLRFNH2)]: interval 1
3) YGGFMRF-OH [Met5-Arg6-Phe7-Enk-OH]: interval 1
4) H-KNQFIRF-NH2 (Printed as H2N-Lys-Asn-Gln-Phe-Ile-Arg-Phe-NH2; also called FMRF-like peptide) [AF-1]: interval 1
5) AGEGLSSPYWSLAAPQRF-NH2 (also called [Y^9]A18Famide; [tyr^9]A-18-F-amide) [[Y^9]A18Fa]: interval 2
6) YGGFMRF-NH2 (also called Met-Enk-NH2; Met^5, Arg^6, Phe^7-NH2 enkephalinamide) [Met5-Arg6-Phe7-Enk-NH2]: interval 2
7) [dY]L[NMeF]QPQRF-NH2 (N-terminus assumed; SMILES CC(C)C[C@H](NC(=O)[C@H](N)Cc1ccc(O)cc1)C(=O)N(C)[C@@H](Cc1ccccc1)C(=O)N[C@@H](CCC(N)=O)C(=O)N1CCC[C@H]1C(=O)N[C@@H](CCC(N)=O)C(=O)N[C@@H](CCCNC(=N)N)C(=O)N[C@@H](Cc1ccccc1)C(N)=O, also called D-Tyr-NPFF; (1DMe)Y8Fa) [(D-Tyr^1-(NMe)Phe^3)NPFF]: interval 3
8) APLEPVYPGDNATPEQMAQYAADLRRYINMLTRPRY (peptide, UniProt P01298 30-65, looked up) [hPP]: interval 1
9) YLFQPQRF-NH2 (also called Y8Famide; Y-8-F-amide) [Y8Fa]: interval 3
10) GWTLNSAGYLLGPHAVGNHRSFSDKNGLTS (peptide, UniProt P22466 33-62, looked up, species assumed, Galanin) [galanin]: interval 1
11) PMRF-NH2 [PMRFa]: interval 3
